- assay_explanation: AUC (0 to infinity) in cynomolgus monkey at 10 mg/kg, po by LC/MS/MS analysis
- Format: ADME, organism-based, Macaca fascicularis
- Set-up: dose 10 mg/kg, route oral, time infinity
- conditions: in vivo
measurement_name: AUC(0-inf) (ng·h/mL)
Provide the reading as a plain figure in ng·h/mL.

### Prompt Look at this compound and give its reported AUC(0-inf). CNC(=O)c1ccccc1Nc1nc(Nc2ccc3c(c2OC)CCC[C@H](N2CCN(CCO)CC2)C3)ncc1Cl [CEP-37440]
### Response 2760

---

- assay_explanation: Drug level in tumor of FAK expressing human CWR22 cells xenografted Nu/Nu mouse at 55 mg/kg, po administered as single dose measured at 2 hrs by LC-MS/MS analysis
- Format: ADME, organism-based, Neoplasm
- conditions: read-out: Drug uptake
measurement_name: concentration at 2 h (ng/g)
Expressed in ng/g, but write only the number.

### Prompt Look up concentration at 2 h: `CNC(=O)c1ccccc1Nc1nc(Nc2ccc3c(c2OC)CCC[C@H](N2CCN(CCO)CC2)C3)ncc1Cl`
### Response 6070

---

Reported half-life values are given for each entry in this list.
- assay_explanation: Half life in CD-1 mouse liver microsomes by LC/MS/MS analysis
- Assay type: ADME

### Prompt What does the record list as half-life for `CNC(=O)c1ccccc1Nc1nc(Nc2ccc3c(c2OC)CCC[C@@H](N2CCN(CCO)CC2)C3)ncc1Cl` ?
### Response 40 min

### Prompt Moving on to `COc1c(Nc2ncc(Cl)c(N[C@H]3[C@@H](C(N)=O)[C@@H]4C=C[C@H]3C4)n2)ccc2c1CCC[C@H](N1CCN(C)CC1)C2`
### Response 40 min

### Prompt Moving on to COc1c(Nc2ncc(Cl)c(Nc3ccccc3N(C)S(C)(=O)=O)n2)ccc2c1CCCC(N1CCN(CCO)CC1)C2 (racemic)
### Response 37 min

### Prompt Next molecule up: `COc1c(Nc2ncc(Cl)c(N[C@H]3[C@@H](C(N)=O)[C@@H]4C=C[C@H]3C4)n2)ccc2c1CC[C@@H](N1CCOCC1)CC2`
### Response 8 to 13 min

### Prompt Please do the same for CNC(=O)c1ccccc1Nc1nc(Nc2ccc3c(c2OC)CCC[C@H](N2CCN(CCO)CC2)C3)ncc1Cl [CEP-37440] as well.
### Response 40 min

### Prompt How about COc1c(Nc2ncc(Cl)c(N[C@H]3[C@@H](C(N)=O)[C@@H]4C=C[C@H]3C4)n2)ccc2c1CCCC(N1CCN(C)CC1)C2 (single isomer, unassigned) ?
### Response 40 min

---

- assay_explanation: Drug level in plasma of FAK expressing human CWR22 cells xenografted Nu/Nu mouse at 55 mg/kg, po administered as single dose measured at 6 hrs by LC-MS/MS analysis
- Assay type: ADME, organism-based
measurement_name: concentration at 6 h (ng/mL)
Give the number; ng/mL is assumed, so skip it.

### Prompt Please give the measured concentration at 6 h for this molecule: CNC(=O)c1ccccc1Nc1nc(Nc2ccc3c(c2OC)CCC[C@H](N2CCN(CCO)CC2)C3)ncc1Cl [CEP-37440]
### Response 3790

---

- assay_explanation: Drug level in tumor of NPM-ALK expressing human SUP-M2 cells xenografted mouse at 30 mg/kg, po administered as single dose measured at 12 hrs by LC-MS/MS analysis
- Assay type: ADME, organism-based, Neoplasm
- conditions: read-out: Drug uptake
measurement_name: concentration at 12 h (ng/g)
Report only the number, with the unit ng/g understood.

### Prompt Any idea what its concentration at 12 h is? The compound is `CNC(=O)c1ccccc1Nc1nc(Nc2ccc3c(c2OC)CCC[C@H](N2CCN(CCO)CC2)C3)ncc1Cl`
### Response 8580

---

- assay_explanation: Half life in human liver microsomes by LC/MS/MS analysis
- Type: ADME
measurement_name: half-life (min)
Hi! Could you send only the number? It should be in min, unit omitted.

In the examples that follow, each entry is paired with its recorded half-life.
| molecule | measurement_name | reported_measurement |
| --- | --- | --- |
| COc1c(Nc2ncc(Cl)c(Nc3ccccc3-c3nccn3C)n2)ccc2c1CCCC(N1CCN(CCO)CC1)C2 (racemic) | half-life | 18 |
| COc1c(Nc2ncc(Cl)c(Nc3ccccc3NS(C)(=O)=O)n2)ccc2c1CCCC(N1CCN(CCO)CC1)C2 (racemic) | half-life | 40 |
| COc1c(Nc2ncc(Cl)c(N[C@H]3[C@@H](C(N)=O)[C@@H]4C=C[C@H]3C4)n2)ccc2c1CCC[C@H](N1CCN(C)CC1)C2 | half-life | 15 |
| CNC(=O)c1ccccc1Nc1nc(Nc2ccc3c(c2OC)CCC[C@@H](N2CCN(CCO)CC2)C3)ncc1Cl | half-life | 40 |
| COc1c(Nc2ncc(Cl)c(Nc3ccccc3N(C)S(C)(=O)=O)n2)ccc2c1CCCC(N1CCN(CCO)CC1)C2 (racemic) | half-life | 13 |

### Prompt Reported half-life, molecule `CNC(=O)c1ccccc1Nc1nc(Nc2ccc3c(c2OC)CCC[C@H](N2CCN(CCO)CC2)C3)ncc1Cl` : ____
### Response 40

### Prompt Record: `COc1c(Nc2ncc(Cl)c(N[C@H]3[C@@H](C(N)=O)[C@@H]4C=C[C@H]3C4)n2)ccc2c1CCC[C@H](N1CCN(CCO)CC1)C2`
### Response 18

### Prompt Quick one: COc1c(Nc2ncc(Cl)c(Nc3ccccc3S(=O)(=O)N(C)C)n2)ccc2c1CCCC(N1CCN(CCO)CC1)C2 (racemic)
### Response 18

### Prompt And what about the molecule COc1c(Nc2ncc(Cl)c(Nc3ccccc3N(C)S(C)(=O)=O)n2)ccc2c1CCCC(N1CCN(C)CC1)C2 (racemic) ?
### Response 12

---

Consider compounds characterized by their pIC50 with Voltage-gated inwardly rectifying potassium channel KCNH2 (Homo sapiens, UniProt Q12809).
Sequence (Q12809 whole entry): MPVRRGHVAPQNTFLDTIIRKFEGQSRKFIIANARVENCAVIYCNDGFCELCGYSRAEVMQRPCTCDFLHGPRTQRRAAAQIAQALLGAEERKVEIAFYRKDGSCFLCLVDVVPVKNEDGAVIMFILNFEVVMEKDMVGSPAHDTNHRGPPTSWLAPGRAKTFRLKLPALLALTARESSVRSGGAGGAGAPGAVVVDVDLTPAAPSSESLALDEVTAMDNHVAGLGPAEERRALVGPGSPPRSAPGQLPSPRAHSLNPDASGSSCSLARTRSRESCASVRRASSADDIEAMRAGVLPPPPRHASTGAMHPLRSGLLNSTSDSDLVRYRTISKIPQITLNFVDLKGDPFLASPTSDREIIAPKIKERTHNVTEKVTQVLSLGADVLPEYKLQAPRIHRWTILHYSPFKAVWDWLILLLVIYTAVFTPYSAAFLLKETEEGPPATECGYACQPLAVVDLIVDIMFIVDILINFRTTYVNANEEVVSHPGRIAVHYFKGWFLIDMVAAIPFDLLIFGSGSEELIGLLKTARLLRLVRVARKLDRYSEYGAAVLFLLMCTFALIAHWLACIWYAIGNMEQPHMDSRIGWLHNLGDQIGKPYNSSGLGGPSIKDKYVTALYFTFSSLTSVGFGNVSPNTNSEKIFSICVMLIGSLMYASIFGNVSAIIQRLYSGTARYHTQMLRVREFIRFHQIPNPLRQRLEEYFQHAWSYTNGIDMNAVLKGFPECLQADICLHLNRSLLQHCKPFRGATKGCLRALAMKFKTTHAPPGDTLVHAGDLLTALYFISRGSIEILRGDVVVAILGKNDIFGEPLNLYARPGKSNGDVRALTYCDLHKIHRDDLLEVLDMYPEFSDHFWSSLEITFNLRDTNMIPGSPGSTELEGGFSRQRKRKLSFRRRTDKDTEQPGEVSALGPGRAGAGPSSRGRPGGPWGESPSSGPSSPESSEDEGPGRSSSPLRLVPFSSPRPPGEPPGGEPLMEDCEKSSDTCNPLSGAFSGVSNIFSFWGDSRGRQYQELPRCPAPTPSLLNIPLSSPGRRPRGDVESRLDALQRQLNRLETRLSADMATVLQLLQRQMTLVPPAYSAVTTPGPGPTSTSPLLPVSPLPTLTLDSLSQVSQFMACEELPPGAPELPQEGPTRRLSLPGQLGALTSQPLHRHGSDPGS
Answer as the number alone; pIC50 is minus log10 of concentration in mol/L.

| compound | pIC50 |
| --- | --- |
| COc1c(Nc2ncc(Cl)c(Nc3ccccc3-n3cccn3)n2)ccc2c1CCCC(N1CCN(CCO)CC1)C2 (racemic) | 5.43 |
| COc1c(Nc2ncc(Cl)c(Nc3ccccc3S(=O)(=O)N(C)C)n2)ccc2c1CCCC(N1CCN(CCO)CC1)C2 (racemic) | 6.62 |

Attention now turns to another entry.
### Prompt For COc1c(Nc2ncc(Cl)c(N[C@H]3[C@@H](C(N)=O)[C@@H]4C=C[C@H]3C4)n2)ccc2c1CCCC(N1CCN(C)CC1)C2 (single isomer, unassigned) , what is its reported pIC50?
### Response 5.10

---

- target_under_test: ALK tyrosine kinase receptor (Homo sapiens, UniProt Q9UM73)
- Sequence (Q9UM73 whole entry): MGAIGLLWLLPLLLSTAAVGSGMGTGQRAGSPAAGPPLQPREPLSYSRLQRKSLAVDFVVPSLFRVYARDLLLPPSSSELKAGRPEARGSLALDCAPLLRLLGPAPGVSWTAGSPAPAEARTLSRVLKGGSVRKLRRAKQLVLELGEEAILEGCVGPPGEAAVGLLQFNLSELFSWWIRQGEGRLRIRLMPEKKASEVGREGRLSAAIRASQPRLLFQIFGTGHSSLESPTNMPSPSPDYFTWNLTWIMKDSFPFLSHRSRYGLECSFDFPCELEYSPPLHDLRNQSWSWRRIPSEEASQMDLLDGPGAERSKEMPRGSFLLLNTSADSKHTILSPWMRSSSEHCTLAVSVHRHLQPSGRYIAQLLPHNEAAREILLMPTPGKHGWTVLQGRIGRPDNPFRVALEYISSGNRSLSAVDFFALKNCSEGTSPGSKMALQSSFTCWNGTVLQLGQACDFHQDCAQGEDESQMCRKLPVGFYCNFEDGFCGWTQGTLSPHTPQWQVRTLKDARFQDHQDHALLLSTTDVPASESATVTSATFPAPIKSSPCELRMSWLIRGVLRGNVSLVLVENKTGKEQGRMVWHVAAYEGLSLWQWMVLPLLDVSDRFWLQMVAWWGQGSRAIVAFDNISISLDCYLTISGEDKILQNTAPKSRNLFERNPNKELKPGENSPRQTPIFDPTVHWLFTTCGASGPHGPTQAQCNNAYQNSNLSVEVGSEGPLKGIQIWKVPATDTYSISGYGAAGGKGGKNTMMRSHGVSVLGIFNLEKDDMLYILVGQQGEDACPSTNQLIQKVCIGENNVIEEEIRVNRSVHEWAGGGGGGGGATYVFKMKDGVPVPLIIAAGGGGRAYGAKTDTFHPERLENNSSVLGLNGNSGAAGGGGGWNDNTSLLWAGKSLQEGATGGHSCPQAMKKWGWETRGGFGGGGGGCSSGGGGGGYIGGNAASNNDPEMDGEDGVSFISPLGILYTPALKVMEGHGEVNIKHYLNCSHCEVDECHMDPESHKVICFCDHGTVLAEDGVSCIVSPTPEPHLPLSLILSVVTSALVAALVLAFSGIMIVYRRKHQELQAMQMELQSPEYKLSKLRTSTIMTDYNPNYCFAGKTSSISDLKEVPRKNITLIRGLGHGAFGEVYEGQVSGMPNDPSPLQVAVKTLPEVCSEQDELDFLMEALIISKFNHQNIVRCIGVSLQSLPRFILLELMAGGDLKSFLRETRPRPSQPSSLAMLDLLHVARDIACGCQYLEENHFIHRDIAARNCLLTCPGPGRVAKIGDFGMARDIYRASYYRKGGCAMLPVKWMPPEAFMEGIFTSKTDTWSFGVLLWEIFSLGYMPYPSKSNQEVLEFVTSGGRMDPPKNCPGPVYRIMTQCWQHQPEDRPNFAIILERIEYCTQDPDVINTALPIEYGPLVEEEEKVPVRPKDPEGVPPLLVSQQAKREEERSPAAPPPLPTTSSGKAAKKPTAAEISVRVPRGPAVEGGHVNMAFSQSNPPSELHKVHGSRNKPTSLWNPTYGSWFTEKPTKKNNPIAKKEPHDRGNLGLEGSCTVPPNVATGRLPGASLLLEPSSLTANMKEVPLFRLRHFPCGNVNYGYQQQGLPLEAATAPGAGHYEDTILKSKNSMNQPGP
- assay_explanation: Inhibition of human ALK expressed in baculovirus using recombinant GST PLC-gamma as substrate assessed as phosphorylation of the substrate after 15 mins by TRF assay
measurement_name: pIC50
// scale note: pIC50 = -log10(conc_M); give the bare number

### Prompt For the compound shown here, `COc1c(Nc2ncc(Cl)c(N[C@H]3[C@@H](C(N)=O)[C@@H]4C=C[C@H]3C4)n2)ccc2c1CCC[C@H](N1CCOCC1)C2` , give the reported pIC50.
### Response 8.15

### Prompt Please answer likewise for COc1c(Nc2ncc(Cl)c(N[C@H]3[C@@H](C(N)=O)[C@@H]4C=C[C@H]3C4)n2)ccc2c1CCCC(N1CCN(C)CC1)C2 (single isomer, unassigned)
### Response 8.05

### Prompt Follow-up item: COc1c(Nc2ncc(Cl)c(Nc3ccccc3N3CCCS3(=O)=O)n2)ccc2c1CCCC(N1CCN(CCO)CC1)C2 (racemic)
### Response 8.21

### Prompt Check COc1c(Nc2ncc(Cl)c(Nc3ccccc3N(C)S(C)(=O)=O)n2)ccc2c1CCCC(N1CCN(CCO)CC1)C2 (racemic) too.
### Response 8.70

### Prompt Likewise for `COc1c(Nc2ncc(Cl)c(N[C@H]3[C@@H](C(N)=O)[C@@H]4C=C[C@H]3C4)n2)ccc2c1CCC[C@H](N1CCN(CCO)CC1)C2` ?
### Response 8.24

### Prompt Queued: COc1c(Nc2ncc(Cl)c(Nc3ccccc3N(C)S(C)(=O)=O)n2)ccc2c1CCCC(N1CCN(C)CC1)C2 (racemic)
### Response 8.64

### Prompt // query: COCCNC1CCCc2c(ccc(Nc3ncc(Cl)c(N[C@H]4[C@@H](C(N)=O)[C@@H]5C=C[C@H]4C5)n3)c2OC)C1 (stereo partly specified)
### Response 8.15

### Prompt Next: `COc1c(Nc2ncc(Cl)c(N[C@H]3[C@@H](C(N)=O)[C@@H]4C=C[C@H]3C4)n2)ccc2c1CCC[C@@H](N1CCOCC1)C2`
### Response 8.82

### Prompt Lookup COc1ccccc1Nc1nc(Nc2ccc3c(c2OC)CCCC(N2CCN(CCO)CC2)C3)ncc1Cl (racemic)
### Response 7.36

### Prompt Also check `COc1c(Nc2ncc(Cl)c(N[C@H]3[C@@H](C(N)=O)[C@@H]4C=C[C@H]3C4)n2)ccc2c1CCC[C@@H](N1CCN(CCO)CC1)C2`
### Response 8.20

### Prompt Another compound: COc1c(Nc2ncc(Cl)c(Nc3ccccc3-c3nccn3C)n2)ccc2c1CCCC(N1CCN(CCO)CC1)C2 (racemic)
### Response 8.30

### Prompt What do we get for COc1c(Nc2ncc(Cl)c(Nc3ccccc3NS(C)(=O)=O)n2)ccc2c1CCCC(N1CCN(CCO)CC1)C2 (racemic) ?
### Response 7.74

### Prompt Moving on to the next compound: COc1c(Nc2ncc(Cl)c(Nc3ccccc3S(=O)(=O)N(C)C)n2)ccc2c1CCCC(N1CCN(CCO)CC1)C2 (racemic)
### Response 8.40

### Prompt Also check COc1c(Nc2ncc(Cl)c(Nc3ccccc3-n3cccn3)n2)ccc2c1CCCC(N1CCN(CCO)CC1)C2 (racemic)
### Response 8.64

### Prompt Ok, now COc1c(Nc2ncc(Cl)c(N[C@H]3[C@@H](C(N)=O)[C@@H]4C=C[C@H]3C4)n2)ccc2c1CC(N1CCOCC1)CCC2 (stereo partly specified)
### Response 7.41
